Below are pIC50 values recorded for EGFR^wt kinase (Homo sapiens, UniProt P00533).
The quantity pIC50 is defined as the negative base-10 logarithm of the molar concentration.

QUERY_SMILES | TESTED_ON | pIC50
COc1cc(NC(=O)C2=C(C)NC(C)=C(C(=O)Nc3cc(OC)c(Cl)cc3OC)C2c2ccc(Cl)cc2)c(OC)cc1Cl | EGFR^wt kinase (Homo sapiens, UniProt P00533) | 7.58
COc1cc(NC(=O)C2=C(C)NC(C)=C(C(=O)Nc3cc(OC)c(Cl)cc3OC)C2c2cccc(Cl)c2)c(OC)cc1Cl | EGFR^wt kinase (Homo sapiens, UniProt P00533) | 7.80

Here is another molecule to look at.
Noted pIC50 for "COc1cc(NC(=O)C2=C(C)NC(C)=C(C(=O)Nc3cc(OC)c(Cl)cc3OC)C2c2ccccc2)c(OC)cc1Cl" , tested on EGFR^wt kinase (Homo sapiens, UniProt P00533): 7.52
